- Test system: KM12 colon
- Assay Method Text: NCI tumour cell line growth inhibition, 48 h
Experimental Readout: log10(TGI) (log10 of the value in µM)
Form field - Quantity: TGI; Unit: µM; Scale: log10

Completed entries (count: 5):
compound="CC1CC[C@@]2(OC1)O[C@H]1C[C@H]3[C@@H]4CC[C@H]5C[C@@H](OC6OC(CO)C(OC7OC(CO)C(OC8OC(CO)C(O)C(OC9OC(C)C(OC%10OC(C)C(O)C(O)C%10O)C(O)C9O)C8OC8OCC(O)C(O)C8O)C(O)C7O)C(O)C6O)CC[C@]5(C)[C@H]4CC(=O)[C@]3(C)[C@H]1[C@@H]2C (stereo partly drawn)" experimental_readout=log10(TGI) experimental_value=1.56
compound=COC(=O)c1ccc(CCc2cc(O)ccc2O)cc1 experimental_readout=log10(TGI) experimental_value=1.44
compound=c1cc(C2CCCCC2)ccc1OCCCCCCN1CCNCC1 experimental_readout=log10(TGI) experimental_value=0.55
compound=COc1ccc(/C=C(\C(=C/c2ccc(OC)cc2)[N+](=O)[O-])[N+](=O)[O-])cc1 experimental_readout=log10(TGI) experimental_value=1.56
compound="COc1ccccc1/C=C1\\CCC(CNc2ccc(Cl)cc2)C1=O (stereo not drawn)" experimental_readout=log10(TGI) experimental_value=1.00

Field log10(TGI) (entry CN(C)/C=C/c1nnnn1-c1ccc(Cl)cc1 ) reads 1.81

Field log10(TGI) (entry CCN(CC)c1ccc(N=C2C=CC(=O)c3ncccc32)c(C)c1 ) reads 1.43

Field log10(TGI) (entry CC1CCC2(NC1)OC1CC3[C@@H]4CC=C5C=CCC[C@]5(C)C4CC[C@]3(C)C1C2C (stereo partly drawn) ) reads 1.64
